Data origin, for the record: ChEMBL document CHEMBL1158527

assay: Activity at HCMV US28 receptor assessed as receptor-mediated inositol phosphate response; design: species or system Human betaherpesvirus 5
Kindly apply the following: true (1) if EC50 is less than 5 µM, false (0) in every other case.

Reference set, count: 3
compound	qualitative-label
Clc1ccc(CC2Cc3ccccc3C2NCc2ccccc2)c(Cl)c1 (configuration not stated)	false (0)
NC1c2ccccc2CC1Cc1ccc(Cl)cc1Cl (configuration not stated)	false (0)
c1ccc(CCN2C3CCC2CC(OC2c4ccccc4CCc4ccccc42)C3)cc1 (configuration not stated)	true (1)

Query :: Hello, is EC50 of the following compound strictly smaller than 5 µM? NCC(OC(c1ccccc1)c1ccc(Cl)cc1Cl)c1ccccc1 (configuration not stated)
Result :: false (0)

Query :: Identify whether the compound CC(Cc1ccccc1)NCCC1c2ccccc2CCc2ccccc21 (configuration not stated) records EC50 below 5 µM.
Result :: false (0)

Query :: Is the reported EC50 for CC(=O)Nc1ccc(CC2Cc3ccccc3C2N)cc1 (configuration not stated) strictly below 5 µM?
Result :: false (0)

Query :: API: query returns whether the compound falls strictly under 5 µM in EC50. Query: `OC1(c2ccc(Cl)cc2)CCN(CCCC(c2ccc(F)cc2)c2ccc(F)cc2)CC1`
Result :: false (0)

Query :: Consider the compound Clc1ccc(CC2Cc3ccccc3C2N2CCN(c3ccccc3)CC2)c(Cl)c1 (configuration not stated) . Is its EC50 strictly less than 5 µM?
Result :: false (0)

Query :: Consider `OC1(c2ccc(Cl)cc2)CCN(CCCN2Cc3ccccc3CCc3ccccc32)CC1` . Does its EC50 lie strictly below 5 µM?
Result :: true (1)

Query :: Hello, is EC50 of the following compound strictly smaller than 5 µM? `OC1(c2ccc(Cl)cc2)CCN(CCCN(Cc2ccc(Cl)cc2)c2ccccc2)CC1`
Result :: false (0)

###

For each entry below, report its Activity value.
system: Human betaherpesvirus 5; test: Activity at HCMV US28 receptor assessed as receptor-mediated inositol phosphate response at 10 uM
Give bare numbers, in %.

See these solved cases before continuing.
compound	Activity [%]
CN1CCN(C2=Nc3cc(Cl)ccc3Nc3ccccc32)CC1	11
O=C(CCN1CCN(CCO)CC1)N1Cc2ccccc2CCc2ccccc21	0
CC(Cc1ccc(Cl)cc1)NCCC1=C2C=CC=CC2Sc2ccccc21 (stereo not given)	21

// batch mode: one Activity value per listed entry
1. CCCN1C2CCC1CC(OC1c3ccccc3C=Cc3ccccc31)C2 (stereo not given)
2. CCN1CCN(C2=Nc3cc(Cl)ccc3Nc3ccccc32)CC1

Result ::
1. 0
2. 16

###

Hi there, I'd appreciate the recorded Activity for every entry that follows.
system: Human betaherpesvirus 5; experiment: Displacement of [125I]CCL5 from HCMV US28 receptor at 10 uM

Example results:
compound	tested-system	Activity
Clc1cccc(/C=C(\c2ccccc2)N2CCN(CCCCc3ccccc3)CC2)c1	Human betaherpesvirus 5	47%
N=C(N)NCCN1C2CCC1CC(OC1c3ccccc3CCc3ccccc31)C2 (configuration not stated)	Human betaherpesvirus 5	34%
OCCCCN1CCN(/C(=C/c2cccc(Cl)c2)c2ccccc2)CC1	Human betaherpesvirus 5	13%
CCCN1C2CCC1CC(OC1c3ccccc3C=Cc3ccccc31)C2 (configuration not stated)	Human betaherpesvirus 5	18%
CN1CCN(/C(=C/c2cccc(Cl)c2)c2ccccc2)CC1	Human betaherpesvirus 5	13%
CN1CCN(C2=Nc3cc(Cl)ccc3Oc3ccccc32)CC1	Human betaherpesvirus 5	19%
CN1CCN(C2=Nc3cc(Cl)ccc3Sc3ccccc32)CC1	Human betaherpesvirus 5	47%
CN1CCN(C2=Nc3ccccc3Sc3ccc(Cl)cc32)CC1	Human betaherpesvirus 5	28%
N/C(CCN1C2CCC1CC(OC1c3ccccc3CCc3ccccc31)C2)=N\O (configuration not stated)	Human betaherpesvirus 5	0%
CCN1C2CCC1CC(OC1c3ccccc3CCc3ccccc31)C2 (configuration not stated)	Human betaherpesvirus 5	7%

Go through the items and report each one's Activity.
1. NC(CCc1ccccc1)c1ccc(Cl)c(Cl)c1 (configuration not stated)
2. CN1CCN(C2=Nc3ccccc3Oc3ccc(Cl)cc32)CC1

Result ::
["5%", "13%"]
